Each entry below carries its reported residual activity.
subject_of_test: FLT3 (human)
assay: radiometric filter-binding kinase assay, Kinase HotSpot
condition_info: compound 0.5 µM; ATP 10 µM
Express your answer in %, writing the number without its unit.

Some compounds with known residual activity results, for comparison:
FC(F)(F)c1ccc(/C=C/c2nc(COc3ccc(CCCCn4ccnn4)cc3)co2)cc1 : 87.8
Cn1cc(/C=C2\C(=O)Nc3ccc(S(N)(=O)=O)cc32)c2ccccc21 : 1.56

Consider now this further compound.
residual activity reported for this compound N#Cc1c(NC(=O)c2cccc3ccccc23)sc2c1CCCC2 : 111

====

Each entry below carries its reported residual activity.
subject_of_test: PKN1 (human)
assay: radiometric filter-binding kinase assay, Kinase HotSpot
condition_info: compound 0.5 µM; ATP 10 µM
Express your answer in %, writing the number without its unit.

Some compounds with known residual activity results, for comparison:
O=c1[nH]c2ccccc2n1C1CCN(Cc2ccc(-c3nc4cc5[nH]cnc5cc4nc3-c3ccccc3)cc2)CC1 : 90.3
COc1cc2ncnc(Nc3ccc(O)c(Br)c3)c2cc1OC : 95.6

Consider now this further compound.
residual activity reported for this compound CCc1nc(-c2ccc(OC)cc2)[nH]c1-c1ccncc1 : 97

====

Each entry below carries its reported residual activity.
subject_of_test: AKT1 (human) (UniProt P31749)
Sequence (P31749 whole entry, looked up): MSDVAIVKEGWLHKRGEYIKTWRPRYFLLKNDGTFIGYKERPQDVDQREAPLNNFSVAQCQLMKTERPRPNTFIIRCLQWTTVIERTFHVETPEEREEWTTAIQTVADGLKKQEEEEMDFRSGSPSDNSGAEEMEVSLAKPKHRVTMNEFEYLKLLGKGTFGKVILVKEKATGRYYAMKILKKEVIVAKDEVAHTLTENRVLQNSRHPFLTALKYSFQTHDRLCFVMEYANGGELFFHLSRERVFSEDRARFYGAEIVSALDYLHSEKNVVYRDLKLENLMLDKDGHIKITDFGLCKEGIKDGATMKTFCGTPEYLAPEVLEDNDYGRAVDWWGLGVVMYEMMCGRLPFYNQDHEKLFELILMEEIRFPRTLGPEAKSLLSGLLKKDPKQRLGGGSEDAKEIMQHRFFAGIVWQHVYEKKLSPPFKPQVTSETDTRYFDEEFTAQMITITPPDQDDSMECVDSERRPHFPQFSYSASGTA
assay: radiometric filter-binding kinase assay, Kinase HotSpot
condition_info: compound 0.5 µM; ATP 10 µM
Express your answer in %, writing the number without its unit.

Some molecules with known residual activity results, for comparison:
COc1cccc(-c2cc(=O)c3ccccc3o2)c1N : 93.8
CN[C@@H]1C[C@H]2O[C@@](C)([C@@H]1OC)n1c3ccccc3c3c4c(c5c6ccccc6n2c5c31)C(=O)NC4 : 7.49
O=C1NC(=O)c2c1c1c3ccccc3[nH]c1c1[nH]c3cc(Br)ccc3c21 : 101
N/C(=N\N=C/c1ccc(-c2cccc([N+](=O)[O-])c2)o1)N[N+](=O)[O-] : 99.7

residual activity reported for this molecule Cc1cc(Nc2nc(-c3ccccc3)nc3ccccc23)n[nH]1 : 107

residual activity reported for this molecule O=C(c1ccccc1)c1ccc(N2CCOCC2)cc1O : 102

residual activity reported for this molecule N#CCCc1ccc2c(c1)-c1[nH]c3ccc([N+](=O)[O-])cc3c1CC(=O)N2 : 111

residual activity reported for this molecule CCOc1cc2ncnc(Nc3cccc(Br)c3)c2cc1OCC : 112

residual activity reported for this molecule N#Cc1c(NC(=O)c2cccc3ccccc23)sc2c1CCCC2 : 101

residual activity reported for this molecule O=c1cc(N2CCOCC2)oc2c(-c3ccccc3)cccc12 : 95.7

====

Each entry below carries its reported residual activity.
subject_of_test: MAPK10 (human) (UniProt P53779)
Sequence (P53779 whole entry, looked up): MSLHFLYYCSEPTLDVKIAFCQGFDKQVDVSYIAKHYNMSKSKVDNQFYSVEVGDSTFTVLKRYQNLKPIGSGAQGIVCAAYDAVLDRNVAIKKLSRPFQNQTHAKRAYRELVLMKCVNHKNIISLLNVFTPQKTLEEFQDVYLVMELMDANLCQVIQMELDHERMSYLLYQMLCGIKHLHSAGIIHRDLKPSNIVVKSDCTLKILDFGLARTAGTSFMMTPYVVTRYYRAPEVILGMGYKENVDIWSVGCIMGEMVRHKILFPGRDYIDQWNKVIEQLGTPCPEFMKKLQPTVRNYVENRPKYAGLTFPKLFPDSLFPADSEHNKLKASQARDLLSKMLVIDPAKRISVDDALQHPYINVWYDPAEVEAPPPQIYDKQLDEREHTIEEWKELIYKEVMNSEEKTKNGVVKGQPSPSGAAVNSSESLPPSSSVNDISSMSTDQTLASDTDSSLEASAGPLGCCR
assay: radiometric filter-binding kinase assay, Kinase HotSpot
condition_info: compound 0.5 µM; ATP 10 µM
Express your answer in %, writing the number without its unit.

N#CCCc1ccc2c(c1)-c1[nH]c3ccc([N+](=O)[O-])cc3c1CC(=O)N2 : 93.3
O=C1NC(=O)c2c1c1c3ccccc3[nH]c1c1[nH]c3cc(Br)ccc3c21 : 105
O=C(c1ccccc1)c1ccc(N2CCOCC2)cc1O : 75.3
N/C(=N\N=C/c1ccc(-c2cccc([N+](=O)[O-])c2)o1)N[N+](=O)[O-] : 87
COc1cccc(-c2cc(=O)c3ccccc3o2)c1N : 85.7
COc1cc2ncnc(Nc3ccc(O)c(Br)c3)c2cc1OC : 89

// molecule c1ccc(-c2cnc(Nc3ccc(OCCN4CCCC4)cc3)s2)cc1 , assay MAPK10 (human) (UniProt P53779), residual activity value: 92.9

// molecule O=c1[nH]c2ccccc2n1C1CCN(Cc2ccc(-c3nc4cc5[nH]cnc5cc4nc3-c3ccccc3)cc2)CC1 , assay MAPK10 (human) (UniProt P53779), residual activity value: 96

// molecule CCCCc1c(-c2ccc(O)cc2)[nH]c2nccnc12 , assay MAPK10 (human) (UniProt P53779), residual activity value: 100
